biological target: Muscarine M1 (GPCR-A-MA-ACH M1) (Homo sapiens); construct: expressed in transfected cells; host or cells: CHO cells; experiment: Muscarine M1 receptor binding, 3H-Pirenzepine; details: human M1, CHO cells, ligand 2 nM, 60 min/22° C., read-out: RB Musc. M1 3H-Pirenzepine pKi (converted)
Sequence (P11229 whole entry): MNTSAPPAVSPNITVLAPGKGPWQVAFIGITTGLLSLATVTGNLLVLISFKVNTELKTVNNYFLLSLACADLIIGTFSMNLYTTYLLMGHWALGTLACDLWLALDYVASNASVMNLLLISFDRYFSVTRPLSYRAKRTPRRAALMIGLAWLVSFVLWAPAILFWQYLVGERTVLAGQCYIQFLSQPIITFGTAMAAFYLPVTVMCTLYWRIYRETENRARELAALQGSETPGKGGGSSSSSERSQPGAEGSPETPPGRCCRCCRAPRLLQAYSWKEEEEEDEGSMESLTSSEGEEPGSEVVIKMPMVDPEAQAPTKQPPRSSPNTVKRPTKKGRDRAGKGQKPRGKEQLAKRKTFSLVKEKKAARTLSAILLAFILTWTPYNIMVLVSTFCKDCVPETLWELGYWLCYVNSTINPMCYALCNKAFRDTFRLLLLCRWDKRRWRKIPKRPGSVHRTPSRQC
assay_metric: Ki (nM)
Expressed in nM, but write only the number.

These solved cases illustrate the format of a correct answer.
| compound | measured_target | Ki [nM] |
| --- | --- | --- |
| CCCCCCC=Cc1c[nH]nc1C1=CCCN(C)C1 [Compound 47C] | Muscarine M1 (GPCR-A-MA-ACH M1) (Homo sapiens) | 794 |
| C=CCCOc1c[nH]nc1C1=CCCN(C)C1 [Compound 33D] | Muscarine M1 (GPCR-A-MA-ACH M1) (Homo sapiens) | 2510 |
| CCCCCCSc1c[nH]nc1C1CN2CCC1CC2 (stereo not drawn) [Compound 49F] | Muscarine M1 (GPCR-A-MA-ACH M1) (Homo sapiens) | 251 |
| CCCSc1c[nH]nc1C1CN2CCC1CC2 (stereo not drawn) [Compound 49E] | Muscarine M1 (GPCR-A-MA-ACH M1) (Homo sapiens) | 316 |
| CCCCSc1cc(C2=CCCN(C)C2)n[nH]1 | Muscarine M1 (GPCR-A-MA-ACH M1) (Homo sapiens) | 158 |

Consider the additional compound presented here.
Write down measured Ki (Muscarine M1 (GPCR-A-MA-ACH M1) (Homo sapiens)) for this compound. CCCCSc1c[nH]nc1C1=CCCN(C)C1 [Compound 22F]
316
